# test-summary: Cytotoxicity against human BEAS-2B cells assessed as cell survival at 8 microg/ml in presence of posaconazole by XTT assay
# Assay type: toxicity, cell-based
# test-parameters: at 8 µg/mL, read-out: Activity
observed-property: viability at 8 microg/ml (%)
Give the number; % is assumed, so skip it.

stdin: For the compound shown here, O=C(CCCN1CCC(O)(c2ccc(Br)cc2)CC1)c1ccc(F)cc1 [BROMPERIDOL] , give the reported viability at 8 microg/ml.
stdout: 71

###

# Tested on: Candida albicans
# test-summary: Synergistic antifungal activity against Candida albicans ATCC 10231 assessed as compound MIC measured after 48 hrs in presence of voriconazole by checkboard based microplate reader analysis
# Format: functional
observed-property: MIC (µg/mL)
Give the number; µg/mL is assumed, so skip it.

Solved cases (3 shown):
COc1ccc(C(=O)CCCN2CCC(O)(c3ccc(Br)cc3)CC2)cc1
32
O=C(CCCN1CCC(O)(c2ccc(Br)cc2)CC1)c1ccc(F)cc1
32
O=C(CCCN1CCC(O)(c2ccc(Br)cc2)CC1)c1ccc(Cl)cc1
16

stdin: For the compound shown here, O=C(CCCN1CCC(O)(c2ccc(Br)cc2)CC1)c1ccccc1 , give the reported MIC.
stdout: 8

stdin: For the compound shown here, O=C(CCCN1CCC(O)(c2ccc(Br)cc2)CC1)c1ccc(Br)cc1 , give the reported MIC.
stdout: 32

###

# test-summary: Cytotoxicity against mouse J774.A1 cells assessed as cell survival at 16 microg/ml by XTT assay
# Type: toxicity, cell-based
# test-parameters: at 16 µg/mL, read-out: Activity
observed-property: viability at 16 microg/ml (%)
Give the number; % is assumed, so skip it.

O=C(CCCN1CCC(O)(c2ccc(Br)cc2)CC1)c1ccc(F)cc1
72

stdin: For the molecule shown here, CC[C@@H]([C@H](C)O)n1ncn(-c2ccc(N3CCN(c4ccc(OC[C@@H]5CO[C@@](Cn6cncn6)(c6ccc(F)cc6F)C5)cc4)CC3)cc2)c1=O , give the reported viability at 16 microg/ml.
stdout: 46

###

# Test system: Candida albicans
# test-summary: Antifungal activity against Candida albicans ATCC MYA-2876 measured after 48 hrs by broth microdilution analysis
# Assay type: functional
observed-property: MIC

Solved cases (3 shown):
CC[C@@H]([C@H](C)O)n1ncn(-c2ccc(N3CCN(c4ccc(OC[C@@H]5CO[C@@](Cn6cncn6)(c6ccc(F)cc6F)C5)cc4)CC3)cc2)c1=O [POSACONAZOLE]
> 32 mg/L
O=C(CCCN1CCC(O)(c2ccc(Br)cc2)CC1)c1ccc(Cl)cc1
> 32 mg/L
O=C(CCCN1CCC(O)(c2ccc(Br)cc2)CC1)c1ccc(Br)cc1
> 64 mg/L

stdin: For the compound shown here, O=C(CCCN1CCC(O)(c2ccc(Br)cc2)CC1)c1ccccc1 , give the reported MIC.
stdout: > 64 mg/L

###

# test-summary: Cytotoxicity against HEK293 cells assessed as cell survival by XTT assay
# Assay type: toxicity, cell-based
# test-parameters: human, read-out: Activity
observed-property: viability

C[C@@H](c1ncncc1F)[C@](O)(Cn1cncn1)c1ccc(F)cc1F
> 100%

stdin: For the compound shown here, O=C(CCCN1CCC(O)(c2ccc(Br)cc2)CC1)c1ccc(F)cc1 , give the reported viability.
stdout: > 100%

stdin: For the compound shown here, CC[C@@H]([C@H](C)O)n1ncn(-c2ccc(N3CCN(c4ccc(OC[C@@H]5CO[C@@](Cn6cncn6)(c6ccc(F)cc6F)C5)cc4)CC3)cc2)c1=O , give the reported viability.
stdout: > 100%

FYI, the data here is from ChEMBL document CHEMBL5252541.
